FYI, the data here is from the supplement of paper PMC6555819.

System: RARg:RXRa (NR concentration 270 nM, RXRa partner concentration 90 nM)
experiment.description: PBM binding z-score (relative to random genomic background probes); higher = stronger binding; sequences stand for … in GC…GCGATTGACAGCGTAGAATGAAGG
test.readout: PBM binding z-score

{"columns": ["entry.sequence", "endpoint.value"],
 "data": [
  ["AGCACGAGGGCACGCTGAGTTGATAGCAGAGTAG", 1.97],
  ["CCTACCGGGCCAAAGGTCATTGATTCCAATGCTC", 5.86],
  ["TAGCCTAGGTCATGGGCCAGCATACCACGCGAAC", 4.29],
  ["TCGAGTAGGTTACCAATTGGGCATTCAGCTTTCT", 0.186],
  ["CCTACTGGGCCATTAGGTCATTGATATCAACGTT", 2.38],
  ["GGAACGCGGGCAAAGTTGATAGCATCTGTCGACG", 0.143],
  ["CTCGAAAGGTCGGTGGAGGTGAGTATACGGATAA", 2.73],
  ["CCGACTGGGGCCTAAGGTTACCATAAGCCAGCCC", 0.451],
  ["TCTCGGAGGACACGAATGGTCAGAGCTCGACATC", 0.332],
  ["GCTAGCAGGCCAATTGGGTCACTCAATGACGGGC", 1.01],
  ["ACTAGCAGGCCAAGTGTGGGTCACTCAAACAAAG", 2.53],
  ["GCGACTGGGACATCAGCAGGTTACCATAACTTAA", -0.00527]
]}

----------
Test system: LXRa:RXRa (NR concentration 270 nM, RXRa partner concentration 90 nM)
experiment.description: PBM binding z-score (relative to random genomic background probes); higher = stronger binding; sequences stand for … in GC…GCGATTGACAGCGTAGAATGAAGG
We use 3 as the dividing line for PBM binding z-score: on or above the line is true, below is false.

{"columns": ["entry.sequence", "experimental.system", "class.assignment"],
 "data": [
  ["CTCGAAAGGTCGTGCTCAGGAGAGTATACCAAAC", "LXRa:RXRa (NR concentration 270 nM, RXRa partner concentration 90 nM)", "true"],
  ["AGAATGAGCTTATTAAGATCAGGGAATTGCGGTC", "LXRa:RXRa (NR concentration 270 nM, RXRa partner concentration 90 nM)", "false"],
  ["TAGCCTAGGTCATTTAGGGGCCAGTATAGAAAGC", "LXRa:RXRa (NR concentration 270 nM, RXRa partner concentration 90 nM)", "true"],
  ["GTACCAAGGTGTATAGGTCGTTGATGAGTAGGCG", "LXRa:RXRa (NR concentration 270 nM, RXRa partner concentration 90 nM)", "false"],
  ["TCGAGTAGGTGACCAATGGGGCATTCAGCTTTCT", "LXRa:RXRa (NR concentration 270 nM, RXRa partner concentration 90 nM)", "false"],
  ["TGAATGTGGTTATAAGATCAGGGAACGTTGCAAA", "LXRa:RXRa (NR concentration 270 nM, RXRa partner concentration 90 nM)", "false"],
  ["GATACAGGCTCAGCTAGAGGCCAGAGTATGGAAA", "LXRa:RXRa (NR concentration 270 nM, RXRa partner concentration 90 nM)", "false"],
  ["CGTCCAAGGTCAAGTTCAGTGAAAGAGACTCGAA", "LXRa:RXRa (NR concentration 270 nM, RXRa partner concentration 90 nM)", "true"],
  ["CGTCCAAGGTCTTAGGAGGTCAGTGAAGACAGAT", "LXRa:RXRa (NR concentration 270 nM, RXRa partner concentration 90 nM)", "true"],
  ["GTACCAAGGTGAATAGGTCGTCGATGAGTAGGCG", "LXRa:RXRa (NR concentration 270 nM, RXRa partner concentration 90 nM)", "false"]
]}
